subject_of_test: Glucose transporter (Leishmania mexicana)
procedure_details: ST_JUDE_LEISH: Cytotoxicity at 2uM final concentration against transgenic Leishmania Mexicana promastigotes LmGT2 that are glucose transport deficient and complemented with the L. Mexicana glucose transporter 2. Activity is measured by DNA content using SYBR green in vitro
Type: functional
value_type: inhibition (%)
// return numeric value only (unit: %, not printed)

Exam item: Can you share its inhibition? I mean this compound: COc1ccc(CC(=O)NC(CCCN2CCC3(CC2)OCc2ccccc23)c2ccc(Cl)c(Cl)c2)cc1 (stereo not given)
Marked response: -0.29

====

subject_of_test: Glucose transporter (Leishmania mexicana)
procedure_details: ST_JUDE_LEISH: Cytotoxicity at 2uM final concentration against transgenic Leishmania Mexicana promastigotes LmGT2 that are glucose transport deficient and complemented with the L. Mexicana glucose transporter 2. Activity is measured by DNA content using SYBR green in vitro
Assay type: functional
List of inhibition values.
// return numeric value only (unit: %, not printed)

Nc1c2c(nc3ccc(NC(=O)c4ccccc4)cc13)CCCC2 ... 4.86

Exam item: Give the reported inhibition for "CCCOc1ccccc1-c1nc2[nH]c3c(c2c(=O)[nH]1)CCN(C)C3" (system: Glucose transporter (Leishmania mexicana)).
Marked response: -1.12

Exam item: Give the reported inhibition for "CN(C)C(C)(C)CN(Cc1ccc(-c2ccc(C(F)(F)F)cc2)cc1)C(=O)Cn1c(CCc2cccc(F)c2F)nc(=O)c2ccccc21" (system: Glucose transporter (Leishmania mexicana)).
Marked response: 0.79

Exam item: Give the reported inhibition for "CCOC(=O)c1c(CN2CCCC2)n(-c2ccccc2)c2cc(Br)c(O)cc12" (system: Glucose transporter (Leishmania mexicana)).
Marked response: 16.7

Exam item: Give the reported inhibition for "CCN(CC)CCN(Cc1ccc(-c2ccc(C(F)(F)F)cc2)cc1)C(=O)Cn1c(CCc2cccc(F)c2F)nc(=O)c2sccc21" (system: Glucose transporter (Leishmania mexicana)).
Marked response: -0.22

Exam item: Give the reported inhibition for Cc1ccc(S(=O)(=O)c2nc(S(=O)(=O)c3ccccc3)sc2NCC2CCCO2)cc1 (centres undefined) (system: Glucose transporter (Leishmania mexicana)).
Marked response: 9.48

====

List of inhibition values.
subject_of_test: Glucose transporter (Leishmania mexicana)
procedure_details: ST_JUDE_LEISH: Cytotoxicity at 2uM final concentration against transgenic Leishmania Mexicana promastigotes LmGT2 that are glucose transport deficient and complemented with the L. Mexicana glucose transporter 2. Activity is measured by DNA content using SYBR green in vitro
Type: functional
In your response, the unit should come after the numeric value.

Exam item: Can you share its inhibition? I mean this molecule: CCCc1cc(=O)[nH]c(-n2nc(C)cc2NC(=O)C(CC)c2ccccc2)n1 (stereo not given)
Marked response: 4.69%

Exam item: Can you share its inhibition? I mean this molecule: "CCCNC(=O)c1cncc(-c2ccc(CNCCCc3ccccc3)cc2)c1"
Marked response: 0.59%

Exam item: Can you share its inhibition? I mean this molecule: "COc1ccc(O)c(C(=O)c2cc(C(=O)NCCc3ccccc3)c(=O)n(CCc3ccccc3)c2)c1"
Marked response: 5.64%

Exam item: Can you share its inhibition? I mean this molecule: "Nc1nc(N)c2c(ccn2Cc2cc3c(cc2Cl)OCO3)n1"
Marked response: 10.5%

Exam item: Can you share its inhibition? I mean this molecule: "COc1c(I)cc(Cc2cnc(N)nc2N)cc1I"
Marked response: 2.6%

====

subject_of_test: Hexose transporter 1 (Plasmodium falciparum) (UniProt O97467)
procedure_details: ST_JUDE_LEISH: Cytotoxicity at 2uM final concentration against transgenic Leishmania Mexicana promastigotes LmPfHT that are glucose transport deficient and complemented with the Plasmodium falciparum hexose transporter. Activity is measured by DNA content using SYBR green in vitro
Type: functional
List of inhibition values.
// return numeric value only (unit: %, not printed)

Exam item: Can you share its inhibition? I mean this molecule: "c1cc(CN2CCCCC2)cc(OCCCNc2ccnc3ccccc23)c1"
Marked response: 7.87

Exam item: Can you share its inhibition? I mean this molecule: "Nc1cccc(CNCc2ccc(-c3ccc(-c4nc5ccccc5[nH]4)s3)cc2)c1"
Marked response: -0.53

Exam item: Can you share its inhibition? I mean this molecule: "CCN(CC)CCN(Cc1ccc(-c2ccc(C(F)(F)F)cc2)cc1)C(=O)Cn1c(CCc2cccc(F)c2F)nc(=O)c2cc(C)ccc21"
Marked response: 9.2

Exam item: Can you share its inhibition? I mean this molecule: Cc1cc(OC(C)C(=O)N2CCc3ccccc32)ccc1Cl (centres undefined)
Marked response: 3.8

Exam item: Can you share its inhibition? I mean this molecule: COc1ccc2nccc([C@@H](O)CN3CCC(NC(=O)C(c4cc5ccccc5o4)N4CCN(C(c5ccccc5)c5ccccc5)CC4)CC3)c2c1 (some centres undefined)
Marked response: 1.55

Exam item: Can you share its inhibition? I mean this molecule: "COc1cc(NC(=O)Nc2cc(C)nc3ccccc23)cc(OC)c1"
Marked response: 0.94

Exam item: Can you share its inhibition? I mean this molecule: "FC(F)(F)CNc1nc(Nc2ccc3ncccc3c2)nc2[nH]ccc12"
Marked response: 17.9

Exam item: Can you share its inhibition? I mean this molecule: "CC(C)(CNCc1ccc(Cl)c(Cl)c1)c1nc(-c2ccc(Cl)c(O)c2)c(-c2ccncc2)[nH]1"
Marked response: 3.02

Exam item: Can you share its inhibition? I mean this molecule: COc1ccc2ncc(F)c(CCN3CC(O)C(CNCc4ccc5c(n4)NC(=O)CS5)C3)c2c1 (centres undefined)
Marked response: 1.93
